Known LogP of a selection of molecules
Experiment: Log P by HPLC on reversed phase columns (EEC directive 79/831 Annex V.A8)
Format: physicochemical
Conditions: method marked [a]
Description: In the above tables, measurement of Log P values was performed according to EEC directive 79/831 Annex V.A8 by HPLC (High Performance Liquid Chromatography) on reversed phase columns with the following methods: • ^[a] […] Lambda-max-values were determined using UV-spectra from 200 nm to 400 nm and the peak values of the chromatographic signals.

>>> print(df.to_string())
                                   molecule  reported
0  CCOC(=O)C(NC(=O)c1sc(C#N)c(Cl)c1C)C(C)C (stereo not drawn)  3.47^[a]

IN: If you can, please state the reported LogP value of `CCOC(=O)C1(NC(=O)c2sc(Cl)c(Br)c2C)CN(C(=O)OC(C)(C)C)C1` .
OUT: 4.23^[a]

IN: If you can, please state the reported LogP value of `N#Cc1sc(C(=O)NC2(C(N)=O)CC2)c(Cl)c1Cl` .
OUT: 1.67^[a]

IN: If you can, please state the reported LogP value of `COC(=O)CNC(=O)c1cc(Br)c(F)s1` .
OUT: 2.01^[a]

IN: If you can, please state the reported LogP value of COC(=O)C(CCSC)NC(=O)c1sc(C#N)c(Br)c1Br (stereo not drawn) .
OUT: 3.23^[a]

IN: If you can, please state the reported LogP value of CCOC(=O)C(CCSC)NC(=O)c1sc(C#N)c(Br)c1Br (stereo not drawn) .
OUT: 3.81^[a]
